System: PC-3 prostate
Test: NCI-60 one-dose screen, 48 h (100 = growth as untreated, 0 = no growth, -100 = all killed)
Details: 10 µM unless noted
The panel holds about 83,000 compounds, 20% with a hit somewhere; the sample as a whole holds those more often.
Parameter threshold = 50%. Response is Y when growth meets or exceeds it, else N.

Sample answers from the record:
{"columns": ["Molecule", "Study Target", "Label Value"],
 "data": [
  ["CCCOC(=O)C1c2cc3c(cc2CC(C)C1C(=O)OCCC)OCO3 (stereo not given)", "PC-3 prostate", "Y"],
  ["Nc1nonc1-c1nc2ccccc2n1Cc1ccc(F)cc1", "PC-3 prostate", "Y"],
  ["CC(=O)c1nn(-c2ccccc2)/c(=N\\N=C\\c2coc3ccc(F)cc3c2=O)s1", "PC-3 prostate", "Y"],
  ["CCC(C)C1NC(=O)c2nc(oc2-c2ccccc2)-c2csc(n2)-c2csc(n2)-c2nc(oc2C)-c2coc(n2)CNC(=O)C(C(C)CC)NC1=O (stereo not given)", "PC-3 prostate", "N"],
  ["Cn1nc(C(F)(F)F)cc1-c1c[nH]c(OCc2ccc(Cl)cc2)c(-c2ccc(Cl)c(C(F)(F)F)c2)c1=O", "PC-3 prostate", "N"]
]}

API: above_or_equal(metric=growth, cutoff=50%) for item O=C(OCc1ccc2c(Cl)cc(Cl)c(O)c2n1)c1cc2ccccc2[nH]1
N

Could you tell me if the measured growth of NC(=S)N/N=C(/c1cccs1)C1CC1 reaches 50% or more?
Y

Could you verify whether the entry COc1cc2c(cc1C)NC(=O)/C2=C\c1c[nH]c2ccccc12 shows growth of no less than 50%?
Y

For this molecule, is measured growth 50% or higher? Oc1ccc(Nc2ncnc3c2sc2ncccc23)cc1
N

###

Tested on: NCI-H226 lung
Experiment: NCI-60 one-dose screen, 48 h (100 = growth as untreated, 0 = no growth, -100 = all killed)
Details: 10 µM unless noted
About 83,000 compounds went through this panel and 20% of them were active in at least one assay; those are over-represented in the sample as a whole.
Metric: growth (%)
# output: bare number, implied unit %

Some solved entries appear below for comparison.
{"columns": ["Compound", "growth, %"],
 "data": [
  ["O=c1cc(-c2ccc3c(c2)OCCO3)oc2cc(Cl)ccc12", -12.9],
  ["COc1ccc(C2C3=C(COC3=O)N(CCO)c3cc(OC)c(OC)cc32)cc1 (stereo unspecified)", 101],
  ["CC1=C(C(=O)Nc2ccc(F)cc2)C(c2ccc(Cl)cc2)C2=C(CC(C)(C)CC2=O)N1 (stereo unspecified)", 84.1],
  ["CCCCCCCCCCCCCC[N+](C)(C)CCCCCCCCCCCCCC", 72.9],
  ["COc1ccc(/C=C/C(=O)c2ccc(NC(=O)CSc3nnc(-c4ccc(Cl)cc4)n3-c3ccccc3)cc2)cc1", 104]
]}

Provide only the value of recorded growth for COc1cc(C2CC(c3ccc(Cl)cc3)=NN2C=O)ccc1OS(=O)(=O)c1ccc(C)cc1 (stereo unspecified)
84.5

Answer with the recorded growth for the compound listed here: O=C(O)c1ccccc1N=Cc1ccccc1
132

Hello, please tell me recorded growth for this one: CC(=O)c1cc(C(=O)c2ccc3c(c2)Sc2ccccc2N3)c2c(C)cccn12
47.8

###

Listing: growth of selected compounds
System: UO-31 renal
Test: NCI-60 one-dose screen, 48 h (100 = growth as untreated, 0 = no growth, -100 = all killed)
Conditions: 10 µM unless noted
Compounds without any hit were thinned out: in the full panel of roughly 83,000, 20% have a hit. The source made the active and inactive calls. Rule for the calls: active = growth percent below 10; inactive = the rest.

{"columns": ["Compound", "growth"],
 "data": [
  ["NS(=O)(=O)c1ccc(N2N=C(c3cccs3)CC2c2ccccc2O)cc1 (stereo not given)", "34.9% (inactive)"],
  ["CC(=O)Nc1nonc1-c1nc2ccccc2n1Cc1ccc(C(C)(C)C)cc1", "46.1% (inactive)"],
  ["CCCCCCCCCCCCCCCc1cc(O)ccc1[N+](=O)[O-]", "58.6% (inactive)"],
  ["O=C(CSc1ccc(Cl)cc1)Nc1ccc(-c2nc3ccccc3s2)c(Cl)c1", "38.2% (inactive)"],
  ["COc1ccc(/C=C/C(=O)c2ccc(NC(=O)CSc3nnc(-c4ccc(Cl)cc4)n3-c3ccccc3)cc2)cc1", "79.8% (inactive)"],
  ["Cc1ccc(Nc2nc(NCCO)c3ccccc3n2)cc1C", "24.6% (inactive)"],
  ["COc1ccc(-c2cn(-c3cccc(C(=O)/C=C/c4ccc(O)c(OC)c4)c3)c(=O)[nH]2)cc1", "19% (inactive)"],
  ["O=[N+]([O-])c1cccc([I+]c2ccccc2)c1", "43.6% (inactive)"],
  ["NC(N)=N/N=C\\c1cccc(OCc2ccccc2)c1", "63.9% (inactive)"]
]}

Output growth of O=C(O)c1cn(-c2ccccc2)nc1-c1ccc(O)cc1
89.4% (inactive)

###

System: OVCAR-3 ovarian
Experiment: NCI-60 one-dose screen, 48 h
Conditions: 10 µM unless noted
About 83,000 compounds went through this panel and 20% of them were active in at least one assay; those are over-represented in the sample as a whole. Activity calls are given as the source filed them. How the source made its calls: active means growth percent below 10; inactive means the rest.
Respond with a class label; see true (active), false (inactive)

Please review the entries below; each comes with its answer.
{"columns": ["Smiles Entry", "Label Value"],
 "data": [
  ["Cc1cc(-c2nnc(/C=C/c3ccc4c(c3)OCO4)o2)n[nH]1", "false"],
  ["Cc1ccc(Nc2nc(NCCO)c3ccccc3n2)cc1C", "true"],
  ["CCCCCCCCCCCCCCCCS(=O)(=O)Nc1cc(C(=O)NN)cc(C(=O)NN)c1", "false"]
]}

Which outcome was entered for the compound CNC(=O)c1cc(Oc2ccc(NC(=O)c3nc(S(C)(=O)=O)n(C)c3-c3ccc(F)cc3)cc2)ccn1 in this test?
false

// return assay outcome for CCCCn1cnc(-c2cc(-c3ccccc3)cc(C(F)(F)F)c2)n1
false

###

System: SK-MEL-5 melanoma
Experiment: NCI-60 one-dose screen, 48 h (100 = growth as untreated, 0 = no growth, -100 = all killed)
Details: 10 µM unless noted
This is part of a sample that, as a whole, favours compounds with a hit. Of some 83,000 tested, about 20% had one in any assay.
API: label(entry) gives criterion met if the entry's growth is strictly smaller than 90%; on equality or larger values it gives criterion not met.

{"columns": ["Smiles Entry", "Label Value"],
 "data": [
  ["CN=C1C=C/C(=N/N=c2/ccn(O)cc2C)C=C1C", "criterion not met"],
  ["CN1CCN(Cc2ccc(NC(=O)c3ccc(C#N)c(C#Cc4cnc(N)c5ncccc45)c3)cc2C(F)(F)F)CC1", "criterion met"],
  ["C=CCN(CCOC(=O)c1ccc([N+](=O)[O-])cc1)CCOC(=O)c1ccc([N+](=O)[O-])cc1", "criterion not met"],
  ["Cc1c(C)c(C)c([N+](=O)[O-])c([N+](=O)[O-])c1C", "criterion not met"]
]}

We now examine a further compound.
I wonder whether Cc1ccc(NC(=O)c2nc(S(C)(=O)=O)oc2-c2ccc(F)cc2)cc1Nc1ccc2ncn(C)c(=O)c2c1 has growth below 90%. Can you tell?
criterion met

###

Tested on: M14 melanoma
Assay: NCI-60 one-dose screen, 48 h
Conditions: 10 µM unless noted
About 83,000 compounds went through this panel and 20% of them were active in at least one assay; those are over-represented in the sample as a whole. Activity calls are given as the source filed them. The calls were made as follows: active = growth percent below 10; inactive = the rest.
Could you please pick one outcome from this set? active, inactive

{"columns": ["Compound", "Label Value"],
 "data": [
  ["CCOC(=O)c1ccccc1SC(C[N+](=O)[O-])c1ccccc1 (configuration not stated)", "inactive"]
]}

Record lookup: outcome of this test for CCCCCCCCNC(C)C(O)c1ccc(SC(C)C)cc1 (configuration not stated) ?
active

Please state the recorded outcome for this compound: Clc1ccc(-c2nc(Br)cn3ccnc23)cc1
inactive

###

System: HT29 colon
Experiment: NCI-60 one-dose screen, 48 h
Conditions: 10 µM unless noted
About 83,000 compounds went through this panel and 20% of them were active in at least one assay; those are over-represented in the sample as a whole. The source made the active and inactive calls. The calls were made as follows: active = growth percent below 10; inactive = the rest.
Classes to choose from: active, inactive

Some solved entries appear below for comparison.
{"columns": ["Molecule", "Study Target", "Label Value"],
 "data": [
  ["COc1cc2c(cc1OC)C(=O)C(Br)CC2 (configuration not stated)", "HT29 colon", "inactive"],
  ["CN1CCN(Cc2ccc(NC(=O)c3ccc(C#N)c(C#Cc4cnc(N)c5ncccc45)c3)cc2C(F)(F)F)CC1", "HT29 colon", "active"],
  ["CC(C)COC(=O)NC(C)(C)C", "HT29 colon", "inactive"],
  ["O=C1C=CC(=O)N1c1cccc(N2C(=O)C=CC2=O)c1", "HT29 colon", "inactive"],
  ["CCN(CC)Cc1cc(Nc2nc(NC3CCC(N(C)C)CC3)c3ccccc3n2)ccc1OC (configuration not stated)", "HT29 colon", "inactive"],
  ["Cc1cc(C)cc(Nc2cc(C)nc3nc(C(F)(F)F)nn23)c1", "HT29 colon", "inactive"],
  ["CC(=O)N(C)c1ccc(Nc2cc(C)[nH]c3ccc4ncnc4c23)cc1", "HT29 colon", "inactive"],
  ["CCCCC(CCc1ccccn1)C(=O)c1ccccc1 (configuration not stated)", "HT29 colon", "inactive"],
  ["COc1cc2cc(C(=O)Nc3ccccc3)c(N)nc2cc1OC", "HT29 colon", "active"],
  ["CCOc1ccc([C@@H]2[C@@H](Oc3ccccc3)C(=O)N2c2cc(OC)c(OC)c(OC)c2)cc1", "HT29 colon", "active"]
]}

Could you kindly confirm the outcome this assay logged for CCOC(=O)Nc1ccc2nc(-c3cscn3)[nH]c2c1 ?
inactive

Recorded test outcome, item CCCCNCC(O)c1cc2c(Cl)cc(Cl)cc2c2cc(C(F)(F)F)ccc12 (configuration not stated)
active

Dear all, I need the recorded test outcome for CC(=O)Nc1nonc1-c1nc2ccccc2n1Cc1ccc(C(C)(C)C)cc1 , thank you.
inactive

Dear colleague, could you share the recorded outcome for CCCCCCCCCCCCCCC(C(=O)OCC)C(=O)OCC when you have a moment?
inactive

Short answer needed: outcome of this test for Cc1cc(C)c2c(n1)sc1c(Nc3ccc(OCc4ccccc4)cc3)ncnc12 ?
inactive

Record lookup: outcome of this test for COc1ccc(-c2n[nH]nc2-c2cc(OC)c3c(c2)OCO3)cc1 ?
active
